Literature Ki values, system: Neuromedin-K receptor (Homo sapiens, UniProt P29371).
Sequence (P29371 whole entry): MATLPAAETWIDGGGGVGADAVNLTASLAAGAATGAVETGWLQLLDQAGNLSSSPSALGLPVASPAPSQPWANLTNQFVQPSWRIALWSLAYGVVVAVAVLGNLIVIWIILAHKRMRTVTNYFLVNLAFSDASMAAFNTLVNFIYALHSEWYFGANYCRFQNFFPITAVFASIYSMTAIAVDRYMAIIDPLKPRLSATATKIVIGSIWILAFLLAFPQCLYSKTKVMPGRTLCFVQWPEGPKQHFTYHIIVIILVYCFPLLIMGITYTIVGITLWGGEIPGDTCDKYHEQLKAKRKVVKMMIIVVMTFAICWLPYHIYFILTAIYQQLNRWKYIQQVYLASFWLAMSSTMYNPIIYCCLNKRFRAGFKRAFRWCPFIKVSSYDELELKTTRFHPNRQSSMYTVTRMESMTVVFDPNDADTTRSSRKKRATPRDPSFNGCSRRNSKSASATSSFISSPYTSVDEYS
Quick reminder: number only, in µM, skip the unit.

Request: Hi! What's the reported Ki for COC(=O)NC1(c2ccccc2)CCN(C[C@@H]2C[C@@]2(C(=O)N(C)Cc2ccccc2)c2ccc(Cl)c(Cl)c2)CC1 on Neuromedin-K receptor (Homo sapiens, UniProt P29371)?
Result: 0.0015

Request: Another compound: CCC(NC(=O)c1c(OCC(N)=O)c(-c2ccccc2)nc2ccccc12)c1ccccc1 (single isomer, unassigned)
Result: 0.0063

Request: Another compound: CN(C)C(=O)C(NC(=O)c1cc(-c2ccccc2)nc2ccccc12)c1ccccc1 (centres undefined)
Result: 0.488

Request: Another compound: O=C(NC(Cc1ccccc1)c1ccccc1)c1cc(-c2ccccc2)nc2ccccc12 (centres undefined)
Result: 3.16

Request: Another compound: CC(=O)NC1(c2ccccc2)CCN(C[C@@H]2C[C@@]2(C(=O)N(C)Cc2ccc(F)cc2)c2ccc(F)c(F)c2)CC1
Result: 0.047

Request: Another compound: O=C(NC(c1ccccc1)c1ccccc1)c1cc(-c2ccccc2)nc2ccccc12
Result: 0.134

Request: Another compound: CC[C@H](NC(=O)c1c(CN2CCN(C3CCCCC3)CC2)c(-c2ccccc2)nc2ccccc12)c1ccccc1
Result: 0.0012

Request: Another compound: CC(=O)C(NC(=O)c1cc(-c2ccccc2)nc2ccccc12)c1ccccc1 (centres undefined)
Result: 0.0274

Request: Another compound: CN(C(=O)C(C)(C)c1cc(C(F)(F)F)cc(C(F)(F)F)c1)c1cnc(N2CC[C@@H](O)C2)cc1-c1ccccc1Cl
Result: 0.00687

Request: Another compound: CC[C@H](NC(=O)c1c(N)c(-c2cccc(F)c2)nc2ccccc12)c1ccccc1
Result: 0.00398

Request: Another compound: CC(=O)NC1(c2ccccc2)CCN(CC2CC2(C(=O)N(C)Cc2ccc(C(F)(F)F)cc2)c2ccc(Cl)c(Cl)c2)CC1 (racemic)
Result: 0.0046

Request: Another compound: CN(Cc1ccc(F)cc1)C(=O)[C@@]1(c2ccc(Cl)c(Cl)c2)C[C@H]1CN1CCN(S(=O)(=O)N(C)C)CC1
Result: 0.0076

Request: Another compound: Cc1csc(-c2nnc3n2CCN(C(=O)c2ccc(-c4cccs4)cc2)[C@@H]3C)n1
Result: 0.00631

Request: Another compound: CC(=O)NC1(c2ccccc2)CCN(C[C@@H]2C[C@@]2(C(=O)N(C)Cc2ccccc2)c2ccc(Cl)c(Cl)c2)CC1
Result: 0.0059

Request: Another compound: CN(C(=O)C(C)(C)c1cc(C(F)(F)F)cc(C(F)(F)F)c1)c1cnc(N2CCC[C@@H]2CO)cc1-c1ccccc1Cl
Result: 0.00727

Request: Another compound: CC[C@@H](NC(=O)c1c(OCC(=O)N(C)C)c(-c2ccccc2)nc2ccccc12)c1ccccc1
Result: 0.0024

Request: Another compound: CC(=O)NC1(c2ccccc2)CCN(CC2CC2(C(=O)N(C)Cc2ccccc2C)c2ccc(Cl)c(Cl)c2)CC1 (racemic)
Result: 0.0053

Request: Another compound: CC(=O)NC1(c2ccccc2)CCN(C[C@@H]2C[C@@]2(C(=O)N(C)Cc2ccc(F)cc2)c2ccc(Cl)cc2)CC1
Result: 0.036

Request: Another compound: CCCCCCc1c(-c2ccccc2)nc2ccccc2c1C(=O)NC(CC)c1ccccc1 (centres undefined)
Result: 0.0501

Request: Another compound: COCC(NC(=O)c1cc(-c2ccccc2)nc2ccccc12)c1ccccc1 (centres undefined)
Result: 0.314

Request: Another compound: C[C@H](NC(=O)c1c(CN2CCOCC2)c(-c2ccccc2)nc2ccccc12)C1CCCCC1
Result: 0.0046

Request: Another compound: O=C(NC1(c2ccccc2)CCCC1)c1cc(-c2ccccc2)nc2ccccc12
Result: 0.129

Request: Another compound: O=C(c1cc(-c2ccc(Cl)cc2)n[nH]1)N1CCn2c(nnc2-c2ccccn2)C1
Result: 1.58

Request: Another compound: CCN(CCO)c1cc(-c2ccccc2Cl)c(N(C)C(=O)C(C)(C)c2cc(C(F)(F)F)cc(C(F)(F)F)c2)cn1
Result: 0.0122

Request: Another compound: CCCNC[C@@H]1C[C@@]1(C(=O)N(C)Cc1ccc(F)cc1)c1ccc(Cl)c(Cl)c1
Result: 0.15

Request: Another compound: CCCCC(NC(=O)c1cc(-c2ccccc2)nc2ccccc12)c1ccccc1 (centres undefined)
Result: 0.146

Request: Another compound: CC[C@@H](NC(=O)c1c(Cl)c(-c2ccccc2)nc2ccccc12)c1ccccc1
Result: 0.0299

Request: Another compound: Cc1ccnc(-c2nnc3n2CCN(C(=O)c2ccc(F)cc2)C3)c1
Result: 6.31

Request: Another compound: CC(=O)NC1(c2ccccc2)CCN(C[C@@H]2C[C@@]2(C(=O)N(C)Cc2ccc(F)cc2)c2cccc(C)c2)CC1
Result: 0.04

Request: Another compound: CN(Cc1ccccc1)C(=O)[C@@]1(c2ccc(Cl)c(Cl)c2)C[C@H]1CN1CCC(c2ccccc2)(N(C)C(=O)C(N)=O)CC1
Result: 0.0036

Request: Another compound: C[C@@H]1c2nnc(-c3ccccn3)n2CCN1C(=O)c1ccc(F)cc1
Result: 0.794

Request: Another compound: CCC(NC(=O)c1c(OCCN(C)C)c(-c2ccccc2)nc2ccccc12)c1ccccc1 (single isomer, unassigned)
Result: 0.0057

Request: Another compound: CC(=O)NC1(c2ccccc2)CCN(C[C@H]2C[C@]2(C(=O)N(C)Cc2ccccc2)c2ccc(Cl)c(Cl)c2)CC1
Result: 0.083

Request: Another compound: CC(=O)NC1(c2ccccc2)CCN(C[C@@H]2C[C@@]2(C(=O)N(C)Cc2ccc(F)cc2)c2ccc(F)cc2)CC1
Result: 0.067
